Target: T1, Rat serum albumin (RSA) (rat, UniProt P02770 25-608)
T1 construct: Bought protein (Sigma); also called rat albumin
T1 sequence (P02770 25-608): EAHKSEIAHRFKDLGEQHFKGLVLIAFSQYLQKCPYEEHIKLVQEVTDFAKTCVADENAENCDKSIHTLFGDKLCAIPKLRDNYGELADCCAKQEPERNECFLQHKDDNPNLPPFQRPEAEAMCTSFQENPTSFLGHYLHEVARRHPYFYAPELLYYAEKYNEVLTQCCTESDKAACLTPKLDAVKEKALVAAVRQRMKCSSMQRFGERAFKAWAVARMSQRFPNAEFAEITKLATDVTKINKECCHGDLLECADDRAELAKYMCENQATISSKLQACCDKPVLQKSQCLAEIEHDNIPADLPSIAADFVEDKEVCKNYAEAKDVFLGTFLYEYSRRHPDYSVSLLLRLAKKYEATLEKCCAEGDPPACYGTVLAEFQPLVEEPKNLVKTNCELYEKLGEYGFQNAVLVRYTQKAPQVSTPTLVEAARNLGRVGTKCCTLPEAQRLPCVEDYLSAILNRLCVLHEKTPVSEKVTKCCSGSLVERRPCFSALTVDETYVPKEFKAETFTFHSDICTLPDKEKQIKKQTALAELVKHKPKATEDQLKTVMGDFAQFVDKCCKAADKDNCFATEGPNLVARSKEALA
Assay: ELISA on coated rat albumin, anti-human Fc HRP, A650, one site-total binding fit
pKd: −log10 of the molar value.
Assay metric: pKd

Binder: 4A01v5 (Fc fusion, not shown: a dimerising Fc or GST; small tags and cut ends, also called Hz4A01v5) VHH: EVQLVESGGGEVQPGGSLRLSCAASGFAFSTSGMVWVRQAPGKGLEWVSTISDEGRIIRYAESVKGRFTISRDNAKNTLYLQMNSLRAEDTAVYYCATYRAGSRIGSYEDYYRGQGTLVTVKP
Recorded number: 9.59

Binder: 4A01v8 (Fc fusion, not shown: a dimerising Fc or GST; small tags and cut ends, also called Hz4A01v8) VHH: EVQLVESGGGEVQPGGSLRLSCAASGFAFSTSGMVWVRQAPGKGLEWVSTISDNARIIRYAESVKGRFTISRDNAKNTLYLQMNSLRAEDTAVYYCATYRAGSRIGSYEDYYRGQGTLVTVKP
Recorded number: 9.48

Binder: 4A01v6 (Fc fusion, not shown: a dimerising Fc or GST; small tags and cut ends, also called Hz4A01v6) VHH: EVQLVESGGGEVQPGGSLRLSCAASGFAFSTSGMVWVRQAPGKGLEWVSTISDSGRIIRYAESVKGRFTISRDNAKNTLYLQMNSLRAEDTAVYYCATYRAGSRIGSYEDYYRGQGTLVTVKP
Recorded number: 9.56

Binder: 4A01v4 (Fc fusion, not shown: a dimerising Fc or GST; small tags and cut ends, also called Hz4A01v4) VHH: EVQLVESGGGEVQPGGSLRLSCAASGFAFSTSGMVWVRQAPGKGLEWVSTISDESRIIRYAESVKGRFTISRDNAKNTLYLQMNSLRAEDTAVYYCATYRAGSRIGSYEDYYRGQGTLVTVKP
Recorded number: 9.49

Just for reference, patent US20250353911A1 is where these values come from.
